# MEASURED_ON: UniProt P21554
# PROTOCOL_NOTES: [35S] GTPγS binding on membranes of CHO cells expressing the human CB1 receptor (agonism)
# Format: biochemical
# Parameters: expressed in transfected cells; membrane preparation
# REPORTED_CONDITIONS: GTPγS EC50, human CB1, CHO cell membranes
READOUT_TYPE: EC50 (nM)
The reply should be a number in nM, with the unit left off.

MOLECULE	UNIT_ABBREV	EC50
COC(=O)[C@H](CO)NC(=O)[C@@H](NC(=O)c1nn(Cc2ccc(F)cc2)c2ccccc12)C(C)(C)C [Example 236]	nM	3.91
CC(C)(C)C(NC(=O)c1nn(Cc2ccc(C#N)cc2F)c2ccccc12)C(=O)NCC(O)CO (centres unmarked) [Example 90]	nM	385
CC(C)(C)[C@H](NC(=O)c1nn(Cc2ccc(F)cc2)c2c(F)c(F)ccc12)C(=O)NCCO [Example 324]	nM	2.6
CC(C)(C)[C@H](NC(=O)c1nn(Cc2ccc(C#N)cc2)c2cc(F)ccc12)C(N)=O [Example 300]	nM	121
CC(C)(C)[C@H](NC(=O)c1nn(Cc2ccc(F)cc2)c2ccccc12)C(=O)Nc1cnoc1 [Example 513]	nM	13.7

Exercise: Query: EC50; subject: CC(C)(C)[C@H](NC(=O)c1nn(Cc2ccc(F)cc2)c2c(Cl)cc(Cl)cc12)C(N)=O [Example 226]
Solution: 0.73

Exercise: State the recorded EC50 for this entry: CC(C)(C)[C@H](NC(=O)c1nn(Cc2ccc(F)cc2)c2ccccc12)C(=O)NCC(=O)NC1CC1 [Example 494]
Solution: 1.17

Exercise: What measured EC50 goes with CC(C)(C)C(NC(=O)c1nn(Cc2ccc(C#N)cc2)c2c(Cl)cccc12)C(=O)NCCO (centres unmarked) [Example 199] ?
Solution: 8.94

Exercise: What does the record list as EC50 for CC(C)(C)[C@H](NC(=O)c1nn(Cc2ccc(F)cc2)c2c(F)c(F)ccc12)C(N)=O [Example 282] ?
Solution: 0.78

Exercise: For the molecule CC(C)(C)C(NC(=O)c1nn(Cc2ccc(C#N)cc2)c2c(Cl)cccc12)C(=O)NC1CC1 (centres unmarked) [Example 198] , what EC50 is on record?
Solution: 7.07

Exercise: What does the record list as EC50 for CC(C)(C)[C@H](NC(=O)c1nn(Cc2ccc(F)cc2)c2c(F)cccc12)C(=O)NCCS(N)(=O)=O [Example 348] ?
Solution: 19.7

====

# MEASURED_ON: human CB1 receptor (Homo sapiens, UniProt P21554)
# Sequence (P21554 whole entry): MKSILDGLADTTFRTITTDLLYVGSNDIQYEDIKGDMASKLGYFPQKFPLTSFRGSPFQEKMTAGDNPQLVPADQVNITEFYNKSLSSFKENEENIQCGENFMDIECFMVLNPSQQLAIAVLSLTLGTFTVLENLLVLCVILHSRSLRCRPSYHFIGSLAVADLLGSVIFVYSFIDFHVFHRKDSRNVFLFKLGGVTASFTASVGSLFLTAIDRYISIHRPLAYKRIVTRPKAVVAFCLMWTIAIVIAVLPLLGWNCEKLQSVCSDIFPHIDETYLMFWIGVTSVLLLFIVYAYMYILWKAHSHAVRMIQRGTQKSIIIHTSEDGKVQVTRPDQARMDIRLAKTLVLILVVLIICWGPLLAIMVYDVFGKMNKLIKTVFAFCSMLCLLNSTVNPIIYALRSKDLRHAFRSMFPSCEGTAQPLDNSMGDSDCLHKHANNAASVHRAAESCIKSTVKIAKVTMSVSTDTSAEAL
# PROTOCOL_NOTES: Human CB1 receptor binding, [3H] CP-55,940 displacement on HEK cell membranes
# Parameters: expressed in transfected cells; host or cells: HEK cells, doxycycline-induced; membrane preparation
# REPORTED_CONDITIONS: CB1 Ki
Form field: log10 Ki (one value per entry).
Heads up: the numbers are on a log10 scale; they represent Ki in nM.

Here is how some compounds turned out for log10 Ki.
COMPOUND	log10 Ki
CC(C)(C)[C@H](NC(=O)c1nn(Cc2ccc(C#N)cc2)c2cc(F)ccc12)C(=O)NC[C@H]1C[C@H]1CO	1.95
CC(C)(C)[C@H](NC(=O)c1nn(Cc2ccc(F)cc2)c2c(F)cc(Cl)cc12)C(=O)NCCS(N)(=O)=O	1.22
CC(C)(C)[C@H](NC(=O)c1nn(Cc2ccc(C#N)cc2)c2c(F)cccc12)C(=O)NCC1CCC(=O)N1 (some centres unmarked)	2.44
CC(C)(C)C(NC(=O)c1nn(Cc2ccc(C#N)cc2F)c2ccccc12)C(=O)NC1CC1 (centres unmarked)	0.35
CN1CCN=C1CNC(=O)[C@@H](NC(=O)c1nn(Cc2ccc(F)cc2)c2ccccc12)C(C)(C)C	2.18
CC(C)(C)[C@H](NC(=O)c1nn(Cc2ccc(F)cc2)c2ccc(Cl)cc12)C(N)=O	-0.36
CC(C)(C)[C@H](NC(=O)c1nn(Cc2ccc(F)cc2)c2ccccc12)C(=O)N1CCC(F)(F)CC1	1.18
CC(C)(C)[C@H](NC(=O)c1nn(Cc2ccc(C#N)cc2)c2ccccc12)C(=O)NC[C@H]1C[C@@H]1CO	2.18

Exercise: What does the record list as log10 Ki for CC(C)(C)[C@H](NC(=O)c1nn(Cc2ccc(F)cc2)c2ccccc12)C(=O)N1CCOC(CO)C1 (some centres unmarked) ?
Solution: 0.40

Exercise: Param item = CC(C)(C)[C@H](NC(=O)c1nn(Cc2ccc(C#N)cc2)c2ccccc12)C(=O)N1CCOCC1 ; retrieve measured log10 Ki.
Solution: 1.05

Exercise: Consider the compound Cn1ccc(NC(=O)[C@@H](NC(=O)c2nn(Cc3ccc(F)cc3)c3ccccc23)C(C)(C)C)n1 and give its measured log10 Ki.
Solution: 1.57
